Data origin, for the record: PubChem BioAssay (EPA / NIEHS)

Read-out: matrix metalloproteinase-1 (MMP1), MMP1 (gene 4312)
experiment.description: LTEA_HepaRG_MMP1: Life Technologies and Expression Analysis (LTEA) Assay for matrix metalloproteinase-1 (MMP1) using HepaRG (AID 2283658)
study.conditions: mRNA level, 48 h; actives raise or lower the signal
Experimental: LTEA_HepaRG is a cell based, multiplexed-readout assay that uses HepaRG, a human liver cell line, with measurements taken at 48 hours after chemical dosing on a 96-well plate.LTEA_HepaRG_MMP1 is one of 102 assay component(s) measured in the LTEA HepaRG cell culture assay. It is a marker of Fibrosis.Data from the assay component LTEA_HepaRG_MMP1 was analyzed into 1 endpoint. […]
Calls of active or inactive are those of the source. The calls were made as follows: active = hit-call score of the fitted dose curve at least 0.9, where 1 is the maximum; inactive = score below 0.9.
Outcome field: choose from 1 = active, -1 = inactive

See these solved cases before continuing.
>  <cpd.smiles>
CC1=C2C[C@H]3[C@@H](CC=C4C[C@@H](O)CC[C@@]43C)[C@@H]2CC[C@]12O[C@@H]1C[C@H](C)CN[C@H]1[C@H]2C

>  <class.name>
-1

$$$$
>  <cpd.smiles>
Clc1ccc(Cl)cc1

>  <class.name>
-1

$$$$
>  <cpd.smiles>
COS(=O)(=O)OC

>  <class.name>
-1

$$$$

Turning now to a further compound:
Hi team, can someone confirm the assay call for `O=C(O)C(F)(F)C(F)(F)C(F)(F)C(F)(F)C(F)(F)C(F)(F)C(F)(F)C(F)(F)C(F)(F)F` ?
1

###

Read-out: Monokine induced gamma interferon (MIG), CXCL9 (gene 4283)
experiment.description: BSK_BE3C_MIG: BioMAP Diversity Plus: BE3C Assay for Monokine induced gamma interferon (MIG) Biomarker Activity (AID 2283035)
study.conditions: primary human bronchial epithelial cells; actives raise or lower the signal
Calls of active or inactive are those of the source. Rule for the calls: active = hit-call score of the fitted dose curve at least 0.9, where 1 is the maximum; inactive = score below 0.9.
Respond with a class label; see active, inactive

Reference set (6 entries):
>  <cpd.smiles>
C=CC(=O)NCNC(=O)C=C

>  <class.name>
inactive

$$$$
>  <cpd.smiles>
CCCCCCCCCc1ccc(O)cc1

>  <class.name>
active

$$$$
>  <cpd.smiles>
c1ccc(-c2ccccc2)cc1

>  <class.name>
inactive

$$$$
>  <cpd.smiles>
Cc1ccccc1[N+](=O)[O-]

>  <class.name>
inactive

$$$$
>  <cpd.smiles>
CC(c1ccc(O)cc1)(c1ccc(O)cc1)c1ccc(O)cc1

>  <class.name>
active

$$$$
>  <cpd.smiles>
CCCCCCCCCC[N+](C)(C)CCCCCCCCCC

>  <class.name>
active

$$$$

// switching to the query compound
Record request — test call for `O=C(NC(=O)c1cc(F)c(F)cc1Cl)Nc1cc(F)ccc1N1CCC(C(=O)O)CC1`
inactive

###

experiment.description: BSK_3C_TissueFactor: BioMAP Diversity Plus: 3C Assay for Tissue Factor Biomarker Activity (AID 2282997)
study.conditions: BioMAP 3C HUVEC, tissue factor biomarker readout; actives raise or lower the signal
Activity calls are given as the source filed them. How the source made its calls: active means hit-call score of the fitted dose curve at least 0.9, where 1 is the maximum; inactive means score below 0.9.
readout.name: AC50

>  <cpd.smiles>
O=NN(c1ccccc1)c1ccccc1

>  <result>
inactive

$$$$
>  <cpd.smiles>
CCSC(=O)N(CC)C1CCCCC1

>  <result>
inactive

$$$$
>  <cpd.smiles>
O=C(NC(=O)c1cc(F)c(F)cc1Cl)Nc1cc(F)ccc1N1CCC(C(=O)O)CC1

>  <result>
inactive

$$$$
>  <cpd.smiles>
O=S(=O)(O)C(F)(F)C(F)(F)C(F)(F)C(F)(F)F

>  <result>
inactive

$$$$
>  <cpd.smiles>
Oc1ccc(C(c2ccc(O)cc2)(C(F)(F)F)C(F)(F)F)cc1

>  <result>
35 µM (active)

$$$$

Kindly consider the entry below.
Looking up `CCCCCCOC(=O)c1ccccc1C(=O)OCCCCCC` , I found its AC50 recorded as inactive
